I'd be grateful if you could share measured Ratio Ki for these entries.
experiment: Selectivity ratio of Ki for recombinant rat sigma 2 receptor to Ki for recombinant human sigma 1 receptor
Answers are plain numbers.

molecule | Ratio Ki
CC(C)(C)c1ccc(CCCN2CCOCC2)cc1 | 360
CC1CN(CCCc2ccc(C(C)(C)C)cc2)CC(C)O1 (mixture of isomers) | 9
CC1CCN(CCCc2ccc(C(C)(C)C)cc2)CC1 | 3

Give measured Ratio Ki for every item shown.
1. c1ccc(CCCN2CCOCC2)cc1
2. C[C@@H]1CN(CCCc2ccc(C(C)(C)C)cc2)C[C@@H](C)O1 (relative stereo)
3. CC(C)(C)c1ccc(CCCN2CCCCC2)cc1

Output line:
1: 3; 2: 29; 3: 21

* * *

target: Sigma non-opioid intracellular receptor 1 (Homo sapiens); assay: Displacement of (+)-[3H]-pentazocine from recombinant human sigma 1 receptor expressed in baculovirus infected Sf9 insect cell membranes after 90 mins by scintillation counting method
Sequence (Q99720 whole entry): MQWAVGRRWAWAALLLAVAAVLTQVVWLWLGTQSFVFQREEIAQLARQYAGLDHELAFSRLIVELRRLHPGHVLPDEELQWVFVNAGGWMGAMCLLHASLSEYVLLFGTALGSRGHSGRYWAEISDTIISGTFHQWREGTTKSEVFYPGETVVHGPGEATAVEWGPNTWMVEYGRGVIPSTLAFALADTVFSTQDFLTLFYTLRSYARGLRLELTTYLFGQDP
observable: Ki (nM)
Give bare numbers, in nM.

Here's what some known entries look like.
compound | Ki / nM
C[C@@H]1CN(CCCc2ccc(C(C)(C)C)cc2)C[C@@H](C)O1 (relative stereo) | 2.3
CC(C)(C)c1ccc(CCCN2CCOCC2)cc1 | 2.6
CC1CCN(CCCc2ccc(C(C)(C)C)cc2)CC1 | 5.4
CC1CN(CCCc2ccc(C(C)(C)C)cc2)CC(C)O1 (mixture of isomers) | 8.4
c1ccc(CCCN2CCOCC2)cc1 | 706

Continue with the next compound.
Input line: Which Ki is reported for this compound? CC(C)(C)c1ccc(CCCN2CCCCC2)cc1
Output line: 1.5
